Assay: refractive index (Na D-line) (dimensionless)
Conditions: 298.15 K; 101.33 kPa; Liquid; Standard Abbe refractometry
Measured refractive index, listed per entry for reference.
The answer should be a number; do not append a unit.

Before answering, review these 3 worked examples.
{"Compound": "CCCOC(C)=O [propyl ethanoate]", "Reading": 1.38181}
{"Compound": "CCOC(C)=O [ethyl acetate]", "Reading": 1.3698}
{"Compound": "CC(=O)OC(C)C [1-methylethyl ethanoate]", "Reading": 1.3748}

Q. Quick one: refractive index of COC(=O)OC [dimethyl carbonate] ?
A. 1.3664

Q. Consider the compound CC(=O)OCCC(C)C [3-methylbutyl ethanoate] and give its measured refractive index.
A. 1.39842

Q. What measured refractive index goes with COC(C)=O [methyl ethanoate] ?
A. 1.35872

Q. Sample CCCCOC(C)=O [butyl ethanoate] — what was its refractive index?
A. 1.39175
